Test system: C57BL/6 Diet Induced Obese (DIO) mice
EXPERIMENT: Oral (P.O.) administration study in DIO mice: in vivo activity, body weights
Design: species or system mouse
SETTINGS: Day 5, DSNG phase, 2 mg/kg, male, N=5
Quick reference for Body weight, Mean among some compounds
Just the number in g, nothing appended.

[[record]]
compound = "CCOC1=C(C)C2=CC=C3[C@@](C)(CC[C@@]4(C)[C@@H]5C[C@](C)(C(N)=O)CC[C@]5(C)CC[C@]34C)C2=CC1=O"
measurement_target = "C57BL/6 Diet Induced Obese (DIO) mice"
assay_result = 33.1

[[record]]
compound = "CC1=C(O)C(=O)C=C2C1=CC=C1[C@@]2(C)CC[C@@]2(C)[C@@H]3C[C@](C)(N(C)C)CC[C@]3(C)CC[C@]12C"
measurement_target = "C57BL/6 Diet Induced Obese (DIO) mice"
assay_result = 33.8

[[record]]
compound = "COC(=O)[C@]1(C)CC[C@]2(C)CC[C@]3(C)C4=CC=C5C(=CC(=O)C(O)=C5C)[C@]4(C)CC[C@@]3(C)[C@@H]2C1 [Pristimerin, reference compound]"
measurement_target = "C57BL/6 Diet Induced Obese (DIO) mice"
assay_result = 33.3

[[record]]
compound = "CC1=C(O)C(=O)C=C2C1=CC=C1[C@@]2(C)CC[C@@]2(C)[C@@H]3C[C@](C)(CN(C)C)CC[C@]3(C)CC[C@]12C"
measurement_target = "C57BL/6 Diet Induced Obese (DIO) mice"
assay_result = 34.2


Request: Bench note: what Body weight, Mean did CC(=O)N(C)C[C@]1(C)CC[C@]2(C)CC[C@]3(C)C4=CC=C5C(=CC(=O)C(O)=C5C)[C@]4(C)CC[C@@]3(C)[C@@H]2C1 show?
Response: 33.5

Request: Consider the compound shown here: CC1=C(O)C(=O)C=C2C1=CC=C1[C@@]2(C)CC[C@@]2(C)[C@@H]3C[C@](C)(N)CC[C@]3(C)CC[C@]12C What is its recorded Body weight, Mean?
Response: 33.7

Request: So what's the measured Body weight, Mean for this one? CC(=O)N[C@]1(C)CC[C@]2(C)CC[C@]3(C)C4=CC=C5C(=CC(=O)C(O)=C5C)[C@]4(C)CC[C@@]3(C)[C@@H]2C1
Response: 31.1

---

EXPERIMENT: Compound solubility in PBS (pH 7.4), LC-MS/MS
SETTINGS: PBS (pH 7.4), pH 7.4, aqueous buffer, kinetic from dmso stock, Solubility (μM), Table 6-D
Recorded log10 solubility at 1 h for the following molecules
// do not treat as linear: log10 of solubility at 1 h, unit µM

[[record]]
molecule = "COC1=C(C)C2=CC=C3[C@@](C)(CC[C@@]4(C)[C@@H]5C[C@](C)(C(N)=O)CC[C@]5(C)CC[C@]34C)C2=CC1=O [ERX1031]"
assay_result = 0.93


Request: # lookup: log10 solubility at 1 h of CCOC1=C(C)C2=CC=C3[C@@](C)(CC[C@@]4(C)[C@@H]5C[C@](C)(C(N)=O)CC[C@]5(C)CC[C@]34C)C2=CC1=O [ERX1107]
Response: 1.06

Request: Given the entry CC1=C(O)C(=O)C=C2C1=CC=C1[C@@]2(C)CC[C@@]2(C)[C@@H]3C[C@](C)(CN(C)C)CC[C@]3(C)CC[C@]12C [ERX1060] , report its measured log10 solubility at 1 h.
Response: 0.05

Request: Entry CC1=C(O)C(=O)C=C2C1=CC=C1[C@@]2(C)CC[C@@]2(C)[C@@H]3C[C@](C)(NS(C)(=O)=O)CC[C@]3(C)CC[C@]12C [ERX1175] has what log10 solubility at 1 h?
Response: 0.61

Request: Find the recorded log10 solubility at 1 h belonging to CC1=C(O)C(=O)C=C2C1=CC=C1[C@@]2(C)CC[C@@]2(C)[C@@H]3C[C@](C)(N(C)C)CC[C@]3(C)CC[C@]12C [ERX1177] and report it.
Response: 1.69

Request: Entry CC(=O)Oc1cc2c(c(C)c1OC(C)=O)C(SC(C)=O)C=C1[C@@]2(C)CC[C@@]2(C)[C@@H]3C[C@](C)(C(=O)O)CC[C@]3(C)CC[C@]12C (stereo partly shown) [ERX1076] has what log10 solubility at 1 h?
Response: 0.81

Request: Entry C=CCOC1=C(C)C2=CC=C3[C@@](C)(CC[C@@]4(C)[C@@H]5C[C@](C)(C(N)=O)CC[C@]5(C)CC[C@]34C)C2=CC1=O [ERX1124] has what log10 solubility at 1 h?
Response: 0.01

Request: Report log10 solubility at 1 h for CC1=C(O)C(=O)C=C2C1=CC=C1[C@@]2(C)CC[C@@]2(C)[C@@H]3C[C@](C)(CN4CCOCC4)CC[C@]3(C)CC[C@]12C [ERX1116] please.
Response: -0.33

Request: Which log10 solubility at 1 h value belongs to CC(=O)N1CCN(c2ccc(OCC3COC(Cn4ccnc4)(c4ccc(Cl)cc4Cl)O3)cc2)CC1 (stereo not shown) [Ketoconazole] ?
Response: 1.55

Request: Could you tell me which log10 solubility at 1 h is on file for CCNC(=O)OC1=C(C)C2=CC=C3[C@@](C)(CC[C@@]4(C)[C@@H]5C[C@](C)(C#N)CC[C@]5(C)CC[C@]34C)C2=CC1=O [ERX1047] ?
Response: 0.05
